Test system: MAPK14 (BALB/cJ mice)
Test: In vivo Inhibition of LPS-induced TNF-alpha Production
Settings: dose or concentration not given here
inhibition reference
Hi! Could you send only the number? It should be in %, unit omitted.

Prompt line: Please report inhibition with MAPK14 (BALB/cJ mice) for item COC(=O)c1c(-c2ccc(F)cc2)c(-c2ccncc2)c(-c2ccncc2)n1C .
Response line: 51

Prompt line: Please report inhibition with MAPK14 (BALB/cJ mice) for item COC(=O)c1c(-c2ccc(F)cc2)c(-c2ccncc2)c(N2CCN(C3CCCC3)CC2)n1C .
Response line: 48.6

Prompt line: Please report inhibition with MAPK14 (BALB/cJ mice) for item COC(=O)c1c(-c2cccc(F)c2)c(-c2ccncc2)c(N2CCNCC2)n1C .
Response line: 49

Entry source: the Kinase Knowledgebase extract (Sharma et al. 2016)
